Consider the following sequences; for each one, report its shrunken log2 fold change.
Tested on: Escherichia coli TOP10
Test: shrunken log2 fold change of peptide-encoding DNA abundance (4.5 h post-induction vs induction); higher = less antimicrobial activity (less host growth inhibition)
Settings: time post-induction: 4.5 h; library: site-saturation at positions 5, 18, 19, 20
Give bare numbers.

Problem: Form field: reported shrunken log2 fold change of `RRIRHRPPRLPRPRPRPEADPRP`
Result: -0.00192

Problem: Form field: reported shrunken log2 fold change of `RRIRMRPPRLPRPRPRPFEYPRP`
Result: -0.219

Problem: Form field: reported shrunken log2 fold change of `RRIRSRPPRLPRPRPRPDNGPRP`
Result: -0.232

Problem: Form field: reported shrunken log2 fold change of `RRIRDRPPRLPRPRPRPYRGPRP`
Result: -0.0122

Problem: Form field: reported shrunken log2 fold change of `RRIRGRPPRLPRPRPRPPCRPRP`
Result: 0.637

Each sequence below has a recorded value; state its shrunken log2 fold change.
1. RRIRLRPPRLPRPRPRPFYIPRP
2. RRIRCRPPRLPRPRPRPCNSPRP
3. RRIRNRPPRLPRPRPRPDWCPRP
4. RRIRHRPPRLPRPRPRPFETPRP
5. RRIRERPPRLPRPRPRPKETPRP
6. RRIRWRPPRLPRPRPRPQPNPRP
7. RRIRHRPPRLPRPRPRPVTSPRP

Result:
1. -0.865
2. -0.0476
3. 0.0226
4. 0.0877
5. 0.0319
6. 0.127
7. -0.000369

###

Tested on: Escherichia coli TOP10
Assay: shrunken log2 fold change of peptide-encoding DNA abundance (4.5 h post-induction vs induction); higher = less antimicrobial activity (less host growth inhibition)
Details: time post-induction: 4.5 h; library: site-saturation at positions 5, 18, 19, 20
Criterion: shrunken log2 fold change meeting or surpassing -0.1. Met: Fulfilled. Not met: Not fulfilled.

Problem: Please tell me: is the sequence `RRIRDRPPRLPRPRPRPWQWPRP` at or over -0.1 in terms of shrunken log2 fold change?
Result: Fulfilled

Others:
Problem: Please tell me: is the sequence `RRIRLRPPRLPRPRPRPTASPRP` at or over -0.1 in terms of shrunken log2 fold change?
Result: Fulfilled

Problem: Please tell me: is the sequence `RRIRCRPPRLPRPRPRPLNQPRP` at or over -0.1 in terms of shrunken log2 fold change?
Result: Not fulfilled

###

Tested on: Escherichia coli TOP10
Test: shrunken log2 fold change of peptide-encoding DNA abundance (4.5 h post-induction vs induction); higher = less antimicrobial activity (less host growth inhibition)
Settings: time post-induction: 4.5 h; library: site-saturation at positions 5, 18, 19, 20
Class key for shrunken log2 fold change values: I (below -0.1), II (-0.1 to below 0.0007), III (0.0007 or more)

Problem: // bin(item) where item = `RRIRHRPPRLPRPRPRPGDSPRP`
Result: I

Problem: // bin(item) where item = `RRIRMRPPRLPRPRPRPKQSPRP`
Result: III

Problem: // bin(item) where item = `RRIRKRPPRLPRPRPRPMRTPRP`
Result: III

Others:
Problem: // bin(item) where item = `RRIRHRPPRLPRPRPRPANMPRP`
Result: I

Problem: // bin(item) where item = `RRIRHRPPRLPRPRPRPCISPRP`
Result: I

Problem: // bin(item) where item = `RRIRHRPPRLPRPRPRPGKHPRP`
Result: I

Problem: // bin(item) where item = `RRIRKRPPRLPRPRPRPQWWPRP`
Result: III

Problem: // bin(item) where item = `RRIRIRPPRLPRPRPRPKSKPRP`
Result: I

Problem: // bin(item) where item = `RRIRARPPRLPRPRPRPGWTPRP`
Result: III

###

System: Escherichia coli TOP10
Assay: shrunken log2 fold change of peptide-encoding DNA abundance (4.5 h post-induction vs induction); higher = less antimicrobial activity (less host growth inhibition)
Conditions: time post-induction: 4.5 h; library: site-saturation at positions 5, 18, 19, 20
Class key for shrunken log2 fold change values: LOW = under -0.05, MID = from -0.05 up to 0.09, HIGH = 0.09 and over

Problem: // bin(item) where item = `RRIRSRPPRLPRPRPRPYIRPRP`
Result: LOW

Others:
Problem: // bin(item) where item = `RRIRQRPPRLPRPRPRPGIKPRP`
Result: MID

Problem: // bin(item) where item = `RRIRKRPPRLPRPRPRPTHEPRP`
Result: HIGH

Problem: // bin(item) where item = `RRIRPRPPRLPRPRPRPCFRPRP`
Result: MID

Problem: // bin(item) where item = `RRIRGRPPRLPRPRPRPTTFPRP`
Result: HIGH

Problem: // bin(item) where item = `RRIRMRPPRLPRPRPRPSIVPRP`
Result: LOW

Problem: // bin(item) where item = `RRIRHRPPRLPRPRPRPIHPPRP`
Result: LOW

Problem: // bin(item) where item = `RRIRFRPPRLPRPRPRPSNWPRP`
Result: LOW

Problem: // bin(item) where item = `RRIRRRPPRLPRPRPRPMCTPRP`
Result: HIGH

Problem: // bin(item) where item = `RRIRRRPPRLPRPRPRPRFHPRP`
Result: MID

###

Tested on: Escherichia coli TOP10
Assay: shrunken log2 fold change of peptide-encoding DNA abundance (4.5 h post-induction vs induction); higher = less antimicrobial activity (less host growth inhibition)
Conditions: time post-induction: 4.5 h; library: site-saturation at positions 5, 18, 19, 20
reported.property: shrunken log2 fold change
One number for each entry.

Problem: Form field: reported shrunken log2 fold change of `RRIRMRPPRLPRPRPRPHPGPRP`
Result: 0.293

Problem: Form field: reported shrunken log2 fold change of `RRIRPRPPRLPRPRPRPIKYPRP`
Result: 0.32

Problem: Form field: reported shrunken log2 fold change of `RRIRDRPPRLPRPRPRPCLMPRP`
Result: 0.209

Problem: Form field: reported shrunken log2 fold change of `RRIRERPPRLPRPRPRPYHFPRP`
Result: -0.177

Problem: Form field: reported shrunken log2 fold change of `RRIRVRPPRLPRPRPRPYCKPRP`
Result: -1.15

Each sequence below has a recorded value; state its shrunken log2 fold change.
1. RRIRMRPPRLPRPRPRPGWQPRP
2. RRIRYRPPRLPRPRPRPQCVPRP
3. RRIRDRPPRLPRPRPRPIDWPRP
4. RRIRGRPPRLPRPRPRPWATPRP
5. RRIRFRPPRLPRPRPRPKTMPRP
6. RRIRGRPPRLPRPRPRPVLLPRP
7. RRIRQRPPRLPRPRPRPTSSPRP

Result:
1: -0.032; 2: -0.127; 3: 0.129; 4: 0.959; 5: -0.197; 6: 0.122; 7: 0.088

###

Test system: Escherichia coli TOP10
Assay: shrunken log2 fold change of peptide-encoding DNA abundance (4.5 h post-induction vs induction); higher = less antimicrobial activity (less host growth inhibition)
Conditions: time post-induction: 4.5 h; library: site-saturation at positions 5, 18, 19, 20
Consider the following sequences; for each one, report its shrunken log2 fold change.
Numbers only.

Some sequences with recorded shrunken log2 fold change:
Problem: Form field: reported shrunken log2 fold change of `RRIRMRPPRLPRPRPRPQWRPRP`
Result: 1.5

Problem: Form field: reported shrunken log2 fold change of `RRIRHRPPRLPRPRPRPRDEPRP`
Result: -0.0872

Problem: Form field: reported shrunken log2 fold change of `RRIRQRPPRLPRPRPRPPEFPRP`
Result: 0.0335

Each sequence below has a recorded value; state its shrunken log2 fold change.
1. RRIRRRPPRLPRPRPRPMCLPRP
2. RRIRGRPPRLPRPRPRPSAGPRP

Result:
0.0511
1.09

###

Tested on: Escherichia coli TOP10;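 also: peptides expressed intracellularly from a pBAD plasmid library in pooled LB shake-flask culture, induced with 0.3% L-arabinose, DNA abundance read by NGS, three biological replicates, DESeq2 with apeglm shrinkage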
Assay: shrunken log2 fold change of peptide-encoding DNA abundance (4.5 h post-induction vs induction); higher = less antimicrobial activity (less host growth inhibition)
Conditions: time post-induction: 4.5 h; library: site-saturation at positions 5, 18, 19, 20
Consider the following sequences; for each one, report its shrunken log2 fold change.
Numbers only.

Each sequence below has a recorded value; state its shrunken log2 fold change.
1. RRIRHRPPRLPRPRPRPSDRPRP
2. RRIRIRPPRLPRPRPRPWNWPRP
3. RRIRTRPPRLPRPRPRPMVWPRP
4. RRIRNRPPRLPRPRPRPASLPRP

Result:
1. -0.125
2. 0.0631
3. 0.57
4. 0.0991

Each sequence below has a recorded value; state its shrunken log2 fold change.
1. RRIRHRPPRLPRPRPRPVVPPRP
2. RRIRERPPRLPRPRPRPKVSPRP
3. RRIRTRPPRLPRPRPRPGWYPRP
4. RRIRCRPPRLPRPRPRPSKQPRP

Result:
[-0.0888, -0.205, -0.23, -0.209]

Each sequence below has a recorded value; state its shrunken log2 fold change.
1. RRIRKRPPRLPRPRPRPLDHPRP
2. RRIRVRPPRLPRPRPRPNGEPRP
3. RRIRTRPPRLPRPRPRPHIIPRP
4. RRIRRRPPRLPRPRPRPNQGPRP
5. RRIRCRPPRLPRPRPRPNLRPRP
6. RRIRKRPPRLPRPRPRPHKPPRP
7. RRIRIRPPRLPRPRPRPQAAPRP

Result:
1. 0.118
2. 0.0914
3. -0.0938
4. 0.134
5. -0.315
6. -0.0045
7. -0.115

This collection of values is drawn from the supplement of paper PMC9112550.
